system tested: Serine/threonine-protein kinase DCLK3 (Homo sapiens)
assay procedure: Competitive binding affinity to DCAMKL3 (unknown origin) at 10 uM in presence of ATP relative to control
property measured: inhibition (%)

[
  {
    "smiles code": "O[C@H]1CC[C@H](Nc2nccc(-n3ccc4ccccc43)n2)CC1",
    "system tested": "Serine/threonine-protein kinase DCLK3 (Homo sapiens)",
    "limit qualifier": "=",
    "observed value": 84
  },
  {
    "smiles code": "O[C@H]1CC[C@H](Nc2nccc(-n3ncc4ccccc43)n2)CC1",
    "system tested": "Serine/threonine-protein kinase DCLK3 (Homo sapiens)",
    "limit qualifier": "=",
    "observed value": 73
  },
  {
    "smiles code": "O[C@H]1CC[C@H](Nc2nccc(-n3nnc4ccccc43)n2)CC1",
    "system tested": "Serine/threonine-protein kinase DCLK3 (Homo sapiens)",
    "limit qualifier": "=",
    "observed value": 92
  },
  {
    "smiles code": "CS(=O)(=O)CCCOc1cccc2c1ccn2-c1ccnc(N[C@H]2CC[C@H](C(=O)N3CCC(O)CC3)CC2)n1",
    "system tested": "Serine/threonine-protein kinase DCLK3 (Homo sapiens)",
    "limit qualifier": ">",
    "observed value": 85
  }
]

====

system tested: LIM domain kinase 1 (Homo sapiens, UniProt P53667)
Sequence (P53667 whole entry, the tested form may be a part): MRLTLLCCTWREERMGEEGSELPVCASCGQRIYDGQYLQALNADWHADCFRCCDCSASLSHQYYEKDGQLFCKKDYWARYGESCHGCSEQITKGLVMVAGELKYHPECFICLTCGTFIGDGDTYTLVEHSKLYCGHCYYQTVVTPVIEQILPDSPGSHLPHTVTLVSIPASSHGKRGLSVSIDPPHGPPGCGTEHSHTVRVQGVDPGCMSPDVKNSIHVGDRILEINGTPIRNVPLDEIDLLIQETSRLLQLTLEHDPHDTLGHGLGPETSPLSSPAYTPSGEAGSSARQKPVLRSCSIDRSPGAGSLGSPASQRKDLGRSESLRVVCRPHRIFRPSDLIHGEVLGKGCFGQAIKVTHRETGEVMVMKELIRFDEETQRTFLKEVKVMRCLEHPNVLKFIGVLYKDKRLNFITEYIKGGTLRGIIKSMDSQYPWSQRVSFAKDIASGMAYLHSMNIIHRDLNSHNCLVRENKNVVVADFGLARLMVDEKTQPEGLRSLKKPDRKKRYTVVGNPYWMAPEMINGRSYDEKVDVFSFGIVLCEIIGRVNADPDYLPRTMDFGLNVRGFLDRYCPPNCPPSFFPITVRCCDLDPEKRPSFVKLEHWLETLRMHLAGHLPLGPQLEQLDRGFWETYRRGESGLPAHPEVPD
pKd: −log10 of the molar value.

[
  {
    "smiles code": "CS(=O)(=O)CCCOc1cccc2c1ccn2-c1ccnc(N[C@H]2CC[C@H](C(=O)N3CCC(O)CC3)CC2)n1",
    "pKd": 6.06
  }
]

====

system tested: Mitogen-activated protein kinase 9 (Homo sapiens, UniProt P45984)
Sequence (P45984 whole entry): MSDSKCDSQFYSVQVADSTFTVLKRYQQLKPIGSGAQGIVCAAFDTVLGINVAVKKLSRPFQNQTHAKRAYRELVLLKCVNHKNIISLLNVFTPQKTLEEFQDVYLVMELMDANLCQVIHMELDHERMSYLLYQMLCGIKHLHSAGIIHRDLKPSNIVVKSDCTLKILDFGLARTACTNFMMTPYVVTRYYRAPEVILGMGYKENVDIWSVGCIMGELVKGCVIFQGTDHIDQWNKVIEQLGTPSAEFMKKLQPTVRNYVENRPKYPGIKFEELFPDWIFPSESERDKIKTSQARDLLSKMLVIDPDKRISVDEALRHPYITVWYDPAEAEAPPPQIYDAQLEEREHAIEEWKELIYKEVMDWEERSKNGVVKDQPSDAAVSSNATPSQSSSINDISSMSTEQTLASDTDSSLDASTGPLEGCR
pIC50: −log10 of the molar value.
Label met when pIC50 >= 6; otherwise not met.

[
  {
    "smiles code": "O[C@H]1CC[C@H](Nc2nccc(-c3n[nH]c4ccccc34)n2)CC1",
    "system tested": "Mitogen-activated protein kinase 9 (Homo sapiens, UniProt P45984)",
    "class name": "met"
  },
  {
    "smiles code": "O[C@H]1CC[C@H](Nc2nccc(-n3ncc4ccccc43)n2)CC1",
    "system tested": "Mitogen-activated protein kinase 9 (Homo sapiens, UniProt P45984)",
    "class name": "met"
  },
  {
    "smiles code": "O[C@H]1CC[C@H](Nc2nccc(N3CCc4ccccc43)n2)CC1",
    "system tested": "Mitogen-activated protein kinase 9 (Homo sapiens, UniProt P45984)",
    "class name": "not met"
  },
  {
    "smiles code": "CCCOc1cccc2c1cnn2-c1ccnc(N[C@H]2CC[C@H](O)CC2)n1",
    "system tested": "Mitogen-activated protein kinase 9 (Homo sapiens, UniProt P45984)",
    "class name": "met"
  }
]

====

system tested: Mitogen-activated protein kinase 9 (Homo sapiens, UniProt P45984)
assay procedure: Binding affinity to JNK2 (unknown origin)
pKd: −log10 of the molar value.
property measured: pKd

[
  {
    "smiles code": "CS(=O)(=O)CCCOc1cccc2c1ccn2-c1ccnc(N[C@H]2CC[C@H](C(=O)N3CCC(O)CC3)CC2)n1",
    "observed value": 7.89
  }
]

====

system tested: Tyrosine-protein kinase ITK/TSK (Homo sapiens)
Sequence (whole entry): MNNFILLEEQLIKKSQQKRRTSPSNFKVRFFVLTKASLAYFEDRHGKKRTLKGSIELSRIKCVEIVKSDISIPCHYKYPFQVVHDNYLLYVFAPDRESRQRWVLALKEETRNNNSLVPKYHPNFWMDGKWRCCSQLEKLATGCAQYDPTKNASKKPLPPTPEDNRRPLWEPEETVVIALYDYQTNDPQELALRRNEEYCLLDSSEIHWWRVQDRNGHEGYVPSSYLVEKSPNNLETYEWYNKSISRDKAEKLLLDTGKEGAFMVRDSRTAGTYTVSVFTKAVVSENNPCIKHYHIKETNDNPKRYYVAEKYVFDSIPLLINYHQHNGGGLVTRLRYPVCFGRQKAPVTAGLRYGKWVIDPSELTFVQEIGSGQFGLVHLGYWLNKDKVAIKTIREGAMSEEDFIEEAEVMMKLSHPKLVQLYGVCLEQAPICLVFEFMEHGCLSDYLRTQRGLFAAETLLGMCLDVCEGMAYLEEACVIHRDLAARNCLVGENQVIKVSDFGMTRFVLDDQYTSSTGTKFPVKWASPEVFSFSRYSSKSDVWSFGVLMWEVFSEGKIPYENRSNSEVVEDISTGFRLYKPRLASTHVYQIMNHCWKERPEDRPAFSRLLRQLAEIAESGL
assay procedure: Competitive binding affinity to ITK (unknown origin) at 10 uM in presence of ATP relative to control
# inhibition listing for each entry below

[
  {
    "smiles code": "O[C@H]1CC[C@H](Nc2nccc(-n3nnc4ccccc43)n2)CC1",
    "inhibition": "< 50%"
  },
  {
    "smiles code": "O[C@H]1CC[C@H](Nc2nccc(-c3n[nH]c4ccccc34)n2)CC1",
    "inhibition": "96%"
  },
  {
    "smiles code": "N[C@H]1CC[C@H](Nc2nccc(-n3nnc4ccccc43)n2)CC1",
    "inhibition": "< 50%"
  },
  {
    "smiles code": "O=C([C@H]1CC[C@H](Nc2nccc(-n3nnc4ccccc43)n2)CC1)N1CCOCC1",
    "inhibition": "< 50%"
  },
  {
    "smiles code": "O[C@H]1CC[C@H](Nc2nccc(-n3ccc4ccccc43)n2)CC1",
    "inhibition": "< 50%"
  },
  {
    "smiles code": "O[C@H]1CC[C@H](Nc2nccc(-n3ncc4ccccc43)n2)CC1",
    "inhibition": "< 50%"
  }
]

====

system tested: Macrophage colony-stimulating factor 1 receptor (Homo sapiens)
assay procedure: Competitive binding affinity to CSF1R (unknown origin) at 10 uM in presence of ATP relative to control
# inhibition listing for each entry below

[
  {
    "smiles code": "O[C@H]1CC[C@H](Nc2nccc(-n3ccc4ccccc43)n2)CC1",
    "inhibition": "< 50%"
  },
  {
    "smiles code": "O[C@H]1CC[C@H](Nc2nccc(-n3ncc4ccccc43)n2)CC1",
    "inhibition": "74%"
  },
  {
    "smiles code": "O[C@H]1CC[C@H](Nc2nccc(-c3n[nH]c4ccccc34)n2)CC1",
    "inhibition": "97%"
  },
  {
    "smiles code": "O[C@H]1CC[C@H](Nc2nccc(-n3nnc4ccccc43)n2)CC1",
    "inhibition": "< 50%"
  }
]

====

system tested: Vascular endothelial growth factor receptor 3 (Homo sapiens)
assay procedure: Competitive binding affinity to FLT4 (unknown origin) at 10 uM in presence of ATP relative to control
property measured: inhibition

[
  {
    "smiles code": "O[C@H]1CC[C@H](Nc2nccc(-n3ccc4ccccc43)n2)CC1",
    "property measured": "inhibition",
    "observed value": "< 50%"
  },
  {
    "smiles code": "O[C@H]1CC[C@H](Nc2nccc(-c3n[nH]c4ccccc34)n2)CC1",
    "property measured": "inhibition",
    "observed value": "87%"
  },
  {
    "smiles code": "O[C@H]1CC[C@H](Nc2nccc(-n3ncc4ccccc43)n2)CC1",
    "property measured": "inhibition",
    "observed value": "< 50%"
  },
  {
    "smiles code": "O=C([C@H]1CC[C@H](Nc2nccc(-n3nnc4ccccc43)n2)CC1)N1CCOCC1",
    "property measured": "inhibition",
    "observed value": "< 50%"
  },
  {
    "smiles code": "O[C@H]1CC[C@H](Nc2nccc(-n3nnc4ccccc43)n2)CC1",
    "property measured": "inhibition",
    "observed value": "< 50%"
  },
  {
    "smiles code": "N[C@H]1CC[C@H](Nc2nccc(-n3nnc4ccccc43)n2)CC1",
    "property measured": "inhibition",
    "observed value": "< 50%"
  }
]

====

system tested: Calcium/calmodulin-dependent protein kinase type II subunit alpha (Homo sapiens)
assay procedure: Competitive binding affinity to CAMK2A (unknown origin) at 10 uM in presence of ATP relative to control

[
  {
    "smiles code": "O=C([C@H]1CC[C@H](Nc2nccc(-n3nnc4ccccc43)n2)CC1)N1CCOCC1",
    "unit tag": "%",
    "limit qualifier": "<",
    "inhibition": 50
  },
  {
    "smiles code": "O[C@H]1CC[C@H](Nc2nccc(-c3n[nH]c4ccccc34)n2)CC1",
    "unit tag": "%",
    "limit qualifier": "=",
    "inhibition": 94
  },
  {
    "smiles code": "O[C@H]1CC[C@H](Nc2nccc(-n3ncc4ccccc43)n2)CC1",
    "unit tag": "%",
    "limit qualifier": "=",
    "inhibition": 94
  },
  {
    "smiles code": "N[C@H]1CC[C@H](Nc2nccc(-n3nnc4ccccc43)n2)CC1",
    "unit tag": "%",
    "limit qualifier": "=",
    "inhibition": 84
  },
  {
    "smiles code": "O[C@H]1CC[C@H](Nc2nccc(-n3nnc4ccccc43)n2)CC1",
    "unit tag": "%",
    "limit qualifier": "=",
    "inhibition": 88
  },
  {
    "smiles code": "O[C@H]1CC[C@H](Nc2nccc(-n3ccc4ccccc43)n2)CC1",
    "unit tag": "%",
    "limit qualifier": "=",
    "inhibition": 89
  }
]
